Each item that follows carries a reported fold-change of IC50 of the mutant relative to WT.
test system: HIV-1 RT mutant K101E/M184I; test: single round infection assay, K101E/M184I; assay type: cell-based; details: K101E/M184I vs WT
Write the number on its own, no unit after it.

Worked set:
1. Cc1cc(/C=C/C#N)cc(C)c1Nc1ccnc(Nc2ccc(C#N)cc2)n1; 3
2. Cc1cc(/C=C/C#N)cc(C)c1Nc1nc(Nc2ccc(F)cc2)c2nc[nH]c2n1; 7
3. Cc1cc(/C=C/C#N)cc(C)c1Nc1ncc(N)c(Nc2ccc(C#N)cc2)n1; 3
4. Cc1cc(/C=C/C#N)cc(C)c1Nc1ncc([N+](=O)[O-])c(Nc2ccc(C#N)cc2)n1; 4
5. COc1ccc(Cn2cnc3c(Nc4ccc(C#N)cc4)nc(Nc4c(C)cc(/C=C/C#N)cc4C)nc32)cc1; 4

Recall and state the measured fold-change of IC50 of the mutant relative to WT for Cc1cc(/C=C/C#N)cc(C)c1Nc1nc(Nc2ccc3scnc3c2)c2nc[nH]c2n1 .
2
